Tested on: K562
experiment notes: cell viability relative to vehicle control; higher = less cytotoxic;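 also: after 48 h exposure read by CellTiter-Glo luminescence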
condition set: 10 µM; SRSF2 genotype: SRSF2 wt/wt
Structures can show the parent of a compound that is named as a salt.

molecule: CN(C)C1C(=O)C(C(N)=O)=C(O)C2(O)C(=O)C3=C(O)c4c(O)cccc4C(C)(O)C3CC12 (stereo not given) [Tetracycline hydrochloride]
cell viability: 90.4%

molecule: CC(NC(C)(C)C)C(=O)c1cccc(Cl)c1 (stereo not given) [Amfebutamone (Bupropion) HCl]
cell viability: 95.6%

molecule: CN1C(=O)[C@@]23C[C@]4([C@]56C[C@@]78SS[C@@](CO)(C(=O)N7[C@H]5Nc5ccccc56)N(C)C8=O)c5ccccc5N[C@@H]4N2C(=O)[C@]1(CO)SS3
cell viability: 0.65%

molecule: COc1c(C)c(O)cc2[o+]c(-c3ccccc3)ccc12.[O-][Cl+3]([O-])([O-])[O-] [Dracohodin perochlorate]
cell viability: 77.4%

molecule: O=c1cccc2n1C[C@@H]1CNC[C@H]2C1
cell viability: 92.9%

====

System: MOLM14
experiment notes: cell viability relative to vehicle control; higher = less cytotoxic
condition set: 10 µM; SRSF2 genotype: SRSF2 wt/wt
Counter-ions that a name gives are not always drawn.
cell viability overview

compound: C=C[C@@H]1C2=CCOC(=O)C2=CO[C@H]1O[C@@H]1O[C@H](CO)[C@@H](O)[C@H](O)[C@H]1O [Gentiopicroside]
cell viability: 104%
--
compound: CCN1CCN(C(=O)Cc2ccc(Nc3ncc(F)c(Nc4ccc(C(=O)Nc5ccccc5Cl)cc4)n3)cc2)CC1
cell viability: 0.49%
--
compound: CC(=O)O[C@H]1C[C@@H]2CC[C@@H]3[C@H](CC[C@@]4(C)[C@H]3C[C@H]([N+]3(C)CCCCC3)[C@@H]4OC(C)=O)[C@@]2(C)C[C@@H]1[N+]1(C)CCCCC1 [Pancuronium dibromide]
cell viability: 102%
--
compound: c1c2c(cc3c1OCO3)-c1cc3ccc4c(c3c[n+]1CC2)OCO4 [Coptisine chloride]
cell viability: 94.3%
--
compound: CC(=O)OC1CN2CCC1CC2 (stereo not given) [Aceclidine HCl]
cell viability: 106%
--
compound: O=C(O)CNC(=O)C1C(=O)N(C2CCCCC2)C(=O)N(C2CCCCC2)C1=O
cell viability: 94.1%
--
compound: Cc1sc2c(c1C)C(c1ccc(Cl)cc1)=NC(CC(N)=O)c1nnc(C)n1-2 (stereo not given)
cell viability: 20.3%
--
compound: CCc1c(C(=O)C(N)=O)c2c(OCC(=O)O)cccc2n1Cc1ccccc1
cell viability: 95.2%
--
compound: O=c1ccc2cc3ccoc3c(O)c2o1
cell viability: 92.2%
--
compound: COC1CC(OC2CCC3(C)C(CCC45OC46CCC(C(C)=O)C6(C)C(OC(C)=O)C(OC(=O)c4ccccc4)C35)C2)OC(C)C1OC1OC(C)C(O)C(OC)C1O (stereo not given) [Tenacissoside I]
cell viability: 92.5%
